FYI, the data here is from ChEMBL document CHEMBL4118266.

target: Transient receptor potential cation channel subfamily V member 1 (Homo sapiens, UniProt Q8NER1); assay: Displacement of [3H]RTX from human TRPV1 expressed in HEK293 cell membranes after 60 mins by scintillation counting method
Sequence (Q8NER1 whole entry): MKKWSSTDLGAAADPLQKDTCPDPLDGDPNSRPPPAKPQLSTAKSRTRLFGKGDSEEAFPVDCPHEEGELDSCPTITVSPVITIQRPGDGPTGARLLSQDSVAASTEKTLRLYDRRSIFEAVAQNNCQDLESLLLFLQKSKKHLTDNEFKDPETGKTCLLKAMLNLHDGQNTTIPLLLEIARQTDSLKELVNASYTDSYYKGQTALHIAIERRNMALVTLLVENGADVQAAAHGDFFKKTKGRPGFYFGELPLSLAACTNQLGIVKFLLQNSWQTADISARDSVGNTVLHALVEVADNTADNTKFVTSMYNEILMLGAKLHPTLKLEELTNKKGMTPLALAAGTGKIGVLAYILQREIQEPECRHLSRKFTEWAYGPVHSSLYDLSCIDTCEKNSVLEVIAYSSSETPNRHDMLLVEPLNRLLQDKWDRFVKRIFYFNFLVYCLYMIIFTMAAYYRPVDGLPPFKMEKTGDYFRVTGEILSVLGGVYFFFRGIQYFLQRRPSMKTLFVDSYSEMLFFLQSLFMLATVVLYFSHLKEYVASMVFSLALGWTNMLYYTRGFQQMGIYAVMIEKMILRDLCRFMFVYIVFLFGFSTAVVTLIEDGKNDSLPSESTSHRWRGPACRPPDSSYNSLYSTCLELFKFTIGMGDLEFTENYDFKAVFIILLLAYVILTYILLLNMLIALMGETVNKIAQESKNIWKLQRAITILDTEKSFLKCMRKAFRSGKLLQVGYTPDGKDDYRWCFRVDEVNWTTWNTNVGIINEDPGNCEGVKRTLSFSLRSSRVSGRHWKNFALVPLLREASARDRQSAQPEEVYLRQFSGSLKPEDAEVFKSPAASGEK
observable: pIC50
Answer as the number alone; pIC50 is minus log10 of concentration in mol/L.

Examples with answers:
INSERT INTO assay_data (structure_as_smiles, measured) VALUES
  ('Cl.Cl.O=C(Nc1cnc2ccccc2c1)c1ccc(-c2ccccc2)c(CN2CCCCC2)c1', 6.82),
  ('Cl.O=C(Nc1ccc2ccc(=O)[nH]c2c1)c1ccc(-c2ccccc2)c(CN2CCCCC2)c1', 7.01);

Q: Look up pIC50 for this compound: CN(C)c1cccc(NC(=O)c2ccc(-c3ccccc3)c(CN3CCCCC3)c2)c1.Cl
A: 6.15

Q: Continue with CN1C(=O)CCc2ccc(NC(=O)c3ccc(-c4ccccc4)c(CN4CCCCC4)c3)cc21.Cl
A: 7.14

Q: Note, next up: O=C1CCCc2ccc(NC(=O)c3ccc(-c4ccccc4)c(CN4CCCCC4)c3)cc2N1
A: 5.74
